# protocol: qHTS for ATAD5 Antagonist screened against the NCATS CANVASS Library (AID 1347370); also: nearly all actives have a fitted effect of over 65% in size; also: potency is read from the fitted curve at half-maximal effect
# study_conditions: HEK293T-ATAD5-luc, 5-FUrd stimulated, luminescence, 16 h; series mostly up to 46.1 µM
Inconclusive results are not listed. The source made the active and inactive calls. Calls follow the shape of the dose curve; as a rule, active = well fitted inhibition curve with a large enough effect; inconclusive = small, poorly fitted or top-dose-only effect; inactive = no such curve, though single readings can be large or run the other way. Bridge positions count the residues as written; N and C are the ends. Square brackets hold non-standard residues; d marks the D form. Side chains are listed from the residue outwards. Peptide text beside a SMILES is read from it. * marks the point of attachment. Phg(4-OMe) = COc1ccc([C@H](N)C(=O)O)cc1; d(aIle) = CC[C@H](C)[C@@H](N)C(=O)O; d(aThr) = C[C@@H](O)[C@@H](N)C(=O)O; NMeF = CN[C@@H](Cc1ccccc1)C(=O)O; Isobutyryl = CC(C)C(=O)*
measure_name: Potency

// below: answered molecules
CC(C)[C@]12CC[C@@]3(C)[C@H](C)CC[C@H](O)[C@@]3(CC1)c1cc3c(cc12)[nH]c1ccccc13 :: inactive
C[C@@]12CCC[C@@](C)(C(=O)OP(=O)(O)OC[C@H]3O[C@@H](n4cnc5c(N)ncnc54)[C@H](O)[C@@H]3O)[C@H]1C[C@@H](O)[C@@]13C[C@@H](CC[C@@H]21)[C@](C)(O)C3 :: inactive
CC[C@H](C)[C@H]1NC(=O)[C@@H](NC(=O)C(C)C)[C@@H](C)OC(=O)[C@H](COC(=O)CNC(C)=O)NC(=O)[C@@H]([C@@H](C)O)NC(=O)[C@H](Cc2ccccc2)N(C)C(=O)[C@H](c2ccc(OC)cc2)NC1=O (Isobutyryl-T[d(aIle)][Phg(4-OMe)][NMeF][d(aThr)]S([Gly-Ac]); ester 1-C) :: inactive
C[C@]12CCC[C@](C)(C(=O)O)[C@@H]1CC[C@@]1(C)c3cocc3CC[C@H]21 :: inactive
O=C1OC(CCO)c2cccc(O)c21 (stereo unspecified) :: inactive
CN1CCc2cc3c(c4c2C1(C)C(=O)c1cc(O)ccc1-4)OCO3 (stereo unspecified) :: 13.2 µM (active)
CC1(C)CC[C@]2(CO)CC[C@]3(C)C(=CCC4[C@@]5(C)CC[C@H](O)C(C)(C)C5CC[C@]43C)C2C1 (stereo partly specified) :: inactive
C=C[C@](Cl)(CBr)CCC=C(C)C :: inactive

Task: Given O=C1CC(c2ccc(O)cc2)Oc2cc(O)ccc21 (stereo unspecified) , state its recorded Potency.
Result: inactive
